The reported numbers originate from patent US12473262B2.

biological target: aryl hydrocarbon receptor (AhR) (Mus musculus (Mouse), UniProt P30561); assay: AhR ligand screening: AhRE-luciferase reporter in transfected Hepa1 cells; assay type: cell-based; settings: fold change of luciferase expression at 10 uM test compound relative to vehicle (0.1% DMSO)
Sequence (P30561 10-805): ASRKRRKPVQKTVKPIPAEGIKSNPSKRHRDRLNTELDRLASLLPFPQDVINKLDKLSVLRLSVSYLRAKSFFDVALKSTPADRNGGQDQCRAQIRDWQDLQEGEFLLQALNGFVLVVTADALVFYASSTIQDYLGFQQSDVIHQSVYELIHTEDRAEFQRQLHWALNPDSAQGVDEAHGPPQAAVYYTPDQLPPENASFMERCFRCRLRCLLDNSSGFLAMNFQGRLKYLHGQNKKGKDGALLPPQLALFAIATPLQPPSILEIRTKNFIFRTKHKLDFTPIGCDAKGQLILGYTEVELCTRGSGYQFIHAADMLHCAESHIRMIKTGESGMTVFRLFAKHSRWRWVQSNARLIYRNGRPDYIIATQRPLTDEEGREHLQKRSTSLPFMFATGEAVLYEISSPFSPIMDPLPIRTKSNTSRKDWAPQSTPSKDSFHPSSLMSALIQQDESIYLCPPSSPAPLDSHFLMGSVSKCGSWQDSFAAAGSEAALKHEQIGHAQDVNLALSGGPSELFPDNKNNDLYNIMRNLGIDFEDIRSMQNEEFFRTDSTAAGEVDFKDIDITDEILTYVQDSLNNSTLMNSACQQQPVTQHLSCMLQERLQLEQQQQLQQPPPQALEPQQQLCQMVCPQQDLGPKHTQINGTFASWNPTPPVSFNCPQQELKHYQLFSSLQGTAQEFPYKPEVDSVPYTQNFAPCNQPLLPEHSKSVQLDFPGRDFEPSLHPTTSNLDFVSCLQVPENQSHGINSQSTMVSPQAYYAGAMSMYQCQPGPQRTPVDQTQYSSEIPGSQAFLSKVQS
Sequence (P53762 whole entry partner): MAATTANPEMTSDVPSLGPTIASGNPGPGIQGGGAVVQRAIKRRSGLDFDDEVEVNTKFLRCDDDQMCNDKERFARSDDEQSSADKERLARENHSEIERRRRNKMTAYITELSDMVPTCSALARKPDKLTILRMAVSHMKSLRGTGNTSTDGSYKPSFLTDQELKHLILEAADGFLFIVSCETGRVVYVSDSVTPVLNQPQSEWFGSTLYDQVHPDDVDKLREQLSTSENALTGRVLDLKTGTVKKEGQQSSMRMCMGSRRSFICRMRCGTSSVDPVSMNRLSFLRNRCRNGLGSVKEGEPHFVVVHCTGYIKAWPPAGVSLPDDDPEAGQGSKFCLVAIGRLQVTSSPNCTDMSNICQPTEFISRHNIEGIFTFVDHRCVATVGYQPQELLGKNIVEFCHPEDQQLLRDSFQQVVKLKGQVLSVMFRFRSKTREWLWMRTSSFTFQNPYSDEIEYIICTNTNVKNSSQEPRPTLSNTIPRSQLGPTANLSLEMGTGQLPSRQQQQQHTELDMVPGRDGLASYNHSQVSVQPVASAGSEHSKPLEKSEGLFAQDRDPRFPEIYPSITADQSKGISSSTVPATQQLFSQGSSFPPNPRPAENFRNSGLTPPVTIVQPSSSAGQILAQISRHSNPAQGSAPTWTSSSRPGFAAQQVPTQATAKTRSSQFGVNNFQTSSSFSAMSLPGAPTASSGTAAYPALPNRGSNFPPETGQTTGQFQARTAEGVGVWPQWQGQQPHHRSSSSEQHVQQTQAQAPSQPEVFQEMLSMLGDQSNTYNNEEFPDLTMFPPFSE
Endpoint: Fold @ 10 uM (fold)
Reply numerically in fold, unit not repeated.

[ask] Fill in: Fold @ 10 uM of `O=S(=O)(c1ccc2ccccc2c1)n1c(-c2cccc3ccccc23)nc2cc(Cl)ccc21` is ___
[reply] 44

[ask] What about `COc1ccc(C(=O)n2c(-c3cccc4ccccc34)nc3cc(Cl)ccc32)cc1` ?
[reply] 44

[ask] Next compound: `O=C(c1ccc(F)c(F)c1)n1c(-c2cccc3ccccc23)nc2cc(OC(F)(F)F)ccc21`
[reply] 24

[ask] Also `COc1ccc(C(=O)n2c(-c3cccc4ccccc34)nc3cc(Cl)ccc32)cc1OC` ?
[reply] 32

[ask] Another compound to look at: `O=C(C1CC1)n1c(-c2cccc3ccccc23)nc2cc(Cl)ccc21`
[reply] 40

[ask] Param item: `COC(=O)c1ccc2c(c1)nc(-c1cccc3ccccc13)n2S(=O)(=O)c1ccc(Cl)cc1`
[reply] 5

[ask] Request: `COC(=O)c1ccc2c(c1)nc(-c1cccc3ccccc13)n2C(=O)c1ccc(Cl)cc1Cl`
[reply] 11

[ask] Now consider `O=C(c1ccc2c(c1)nc(-c1cccc3ccccc13)n2Cc1cccc2ccccc12)N1CCOCC1` and answer again.
[reply] 4

[ask] `N#Cc1ccc(C(=O)c2c[nH]c3ccc(Cl)cc23)cc1` , same question.
[reply] 52

###

Would you mind telling me the reported pIC50 of each entry?
target: CYP-2B6 (Homo sapiens (Human), UniProt P20813); test: CYP panel profile: P450 inhibition, CYP-2B6; assay type: in vitro ADME; settings: human liver microsomes
Sequence (P20813 whole entry): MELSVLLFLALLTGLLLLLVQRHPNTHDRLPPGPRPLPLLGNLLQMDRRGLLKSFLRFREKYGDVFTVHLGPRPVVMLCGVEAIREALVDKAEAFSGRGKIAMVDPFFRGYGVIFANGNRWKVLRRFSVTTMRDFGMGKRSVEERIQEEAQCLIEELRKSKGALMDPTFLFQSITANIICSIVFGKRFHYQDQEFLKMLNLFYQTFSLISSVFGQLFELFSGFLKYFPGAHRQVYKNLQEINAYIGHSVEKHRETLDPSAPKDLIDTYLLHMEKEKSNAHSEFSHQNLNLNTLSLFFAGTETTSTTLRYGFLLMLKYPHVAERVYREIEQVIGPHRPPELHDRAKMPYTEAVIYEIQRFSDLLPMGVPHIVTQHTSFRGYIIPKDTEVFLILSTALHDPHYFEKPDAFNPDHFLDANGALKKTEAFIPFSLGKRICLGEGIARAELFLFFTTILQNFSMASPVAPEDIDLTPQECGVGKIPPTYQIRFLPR
// scale note: pIC50 = -log10(conc_M); give the bare number

[ask] Any idea what its pIC50 is? The molecule is `O=C(c1ccccc1)n1c(-c2cccc3ccccc23)nc2ccc(Cl)cc21`
[reply] 4.71

[ask] Then what about the molecule `O=C(c1ccc(F)cc1)n1c(-c2cccc3ccccc23)nc2cc(Cl)ccc21` ?
[reply] 4.66

[ask] Thanks! And O=C(c1ccc(F)c(F)c1)n1c(-c2cccc3ccccc23)nc2cc(Cl)ccc21 [Compound 529] ?
[reply] 5.02

[ask] Now this one: `Clc1ccc2[nH]c(-c3cccc4ccccc34)cc2c1`
[reply] 5.10

[ask] Quick one: `O=C(C1CC1)n1c(-c2cccc3ccccc23)cc2cc(Cl)ccc21`
[reply] 5.37

###

biological target: aryl hydrocarbon receptor (AhR) (Mus musculus (Mouse), UniProt P30561); assay: AhR ligand screening: AhRE-luciferase reporter in transfected Hepa1 cells; assay type: cell-based; details: fold change of luciferase expression at 10 uM test compound relative to vehicle (0.1% DMSO)
We use 10 fold as the dividing line for Fold @ 10 uM: on or above the line is t, below is f.

[ask] Check if Fold @ 10 uM >= 10 fold (inclusive). Item: `Clc1ccc2[nH]c(-c3cccc4ccccc34)cc2c1`
[reply] t

[ask] // same read-out, input: O=C(c1cccc2ccccc12)C1CN(C(=O)c2ccccc2)c2ccc(Cl)cc21 (stereo not shown)
[reply] f

[ask] Note, next up: `N#Cc1ccc(S(=O)(=O)n2c(-c3cccc4ccccc34)nc3ccc(C(=O)N4CCCCC4)cc32)cc1`
[reply] f

[ask] Moving on to the next compound: `O=C(c1ccccc1)n1c(-c2ccc(F)cc2)nc2cc(Cl)ccc21`
[reply] t

[ask] Also `O=C(c1ccccc1)n1c(-c2cccc3ccccc23)nc2cc(OC(F)(F)F)ccc21` ?
[reply] t

[ask] # repeat for `O=C(c1ccc(F)c(F)c1)n1c(-c2cccc(C(F)(F)F)c2)nc2cc(Cl)ccc21`
[reply] t
